B1: Chromodomain-helicase-DNA-binding protein 7, residues 2564 to 2605; numbered along this chain, Q9P2D1 (parent)
chain: DPDTRIPVINLEDGTRLVGEDAPKNKDLVEWLKLHPTYTVDM

Variants of: B1
Assay: abundance fitness (aPCA) (normalised: wild type 0, dead -1); higher = more abundant; growth selection in yeast, the domain comes from the species named
Conditions: Homo sapiens
So basically, the class depends on measured abundance fitness, and the ranges are low range: < -0.4; mid range: ≥ -0.4 and < -0.09; high range: ≥ -0.09

Before answering, review these 5 worked examples.
Place this variant in its band: P2T high range

And for W31F ? high range

And for I6F ? mid range

And for V18L ? mid range

And for L34H ? high range

New cases:
Place this variant in its band: P23A low range

And for D41W ? low range

And for P2W ? high range
